Where do the numbers come from? From PubChem BioAssay (NCATS).

- Assay details: qHTS of pediatric cancer cell lines to identify multiple opportunities for drug repurposing: Primary screen for MG 63 (6-TG R) cells (AID 1347105); note: nearly all actives have a fitted effect of over 50% in size
- Run parameters: MG 63 (6-TG R) viability, CellTiter-Glo, 48 h; series mostly up to 46 µM
Records with an inconclusive call do not appear. Calls of active or inactive are those of the source. Calls come from the whole dose curve; as a rule, active = well fitted cell-killing curve with a large enough effect; inconclusive = small, poorly fitted or top-dose-only effect; inactive = no such curve, though single readings can be large or run the other way.
I would appreciate it if you answered using one of these outcomes: active, inactive

As a guide, the following entries are already answered.
[[record]]
compound = "CC(=O)NC(=O)c1ccccc1O"
answer_label = "inactive"

[[record]]
compound = "C[C@H]1[C@H]2CC[C@H]3[C@@H]4CC=C5C[C@@H](N(C)C)CC[C@]5(C)[C@H]4CC[C@]23CN1C"
answer_label = "inactive"

[[record]]
compound = "CC(=O)OCC1=C(C(=O)O)N2C(=O)[C@@H](NC(=O)CSc3ccncc3)[C@H]2SC1"
answer_label = "inactive"

[[record]]
compound = "CC(=O)NO"
answer_label = "inactive"

[[record]]
compound = "CN(C)CCOC(c1ccc(Cl)cc1)c1ccccn1 (stereo not given)"
answer_label = "inactive"


Kindly consider the entry below.
Query: Entry N#C/C(=C1\SCC(c2ccccc2Cl)S1)n1ccnc1 (stereo not given) : call = ?
Result: inactive

###

- Assay details: qHTS of pediatric cancer cell lines to identify multiple opportunities for drug repurposing: Primary screen for TC32 cells (AID 1347089); note: nearly all actives have a fitted effect of over 60% in size
- Run parameters: TC32 Ewing sarcoma viability, CellTiter-Glo luminescence, 48 h; series mostly up to 45.8 µM
Results filed as inconclusive are left out. Calls of active or inactive are those of the source. Calls come from the whole dose curve; as a rule, active = well fitted cell-killing curve with a large enough effect; inconclusive = small, poorly fitted or top-dose-only effect; inactive = flat fitted curve, though single readings scatter.
I would appreciate it if you answered using one of these outcomes: Y for active, N for inactive

[[record]]
molecule = "C=C1c2cccc(O)c2C(O)=C2C(=O)[C@]3(O)C(O)=C(C(N)=O)C(=O)[C@@H](N(C)C)[C@@H]3[C@@H](O)[C@H]12"
answer_label = "N"

[[record]]
molecule = "CCCCCCCCCCCCSCCOCCO"
answer_label = "N"

[[record]]
molecule = "CCOC(=O)[C@H](CCc1ccccc1)N[C@@H](C)C(=O)N1[C@H](C(=O)O)C[C@@H]2CCC[C@@H]21"
answer_label = "N"

[[record]]
molecule = "CC(=O)Nc1ccc(CC(=O)O)cc1"
answer_label = "N"

[[record]]
molecule = "COc1cc(C(=O)N2CCCCCCC2)cc(OC)c1OC"
answer_label = "N"

[[record]]
molecule = "NS(=O)(=O)c1cc(C(=O)O)cc(N2CCCC2)c1Oc1ccccc1"
answer_label = "N"

[[record]]
molecule = "CC(=O)OCC(=O)[C@H]1CC[C@H]2[C@@H]3CCC4=CC(=O)CC[C@]4(C)[C@H]3CC[C@]12C"
answer_label = "N"

[[record]]
molecule = "CCC(Cc1c(I)cc(I)c(N)c1I)C(=O)O (stereo unspecified)"
answer_label = "N"

[[record]]
molecule = "Cc1c(-c2ccccc2)oc2c(C(=O)OCCN3CCCCC3)cccc2c1=O"
answer_label = "N"

[[record]]
molecule = "CCOCCn1c(N2CCCN(C)CC2)nc2ccccc21"
answer_label = "N"


Query: Entry CCOc1cc(OCC)c(C(=O)CCC(=O)O)cc1OCC : call = ?
Result: N

Query: Entry O=C(NC1CCN(CCc2c[nH]c3ccccc23)CC1)c1ccccc1 : call = ?
Result: N
